target: HLA-B*07:02; assay: IEDB peptide-MHC binding, purified MHC/competitive/radioactivity; bounds were set here for any values at or beyond the usual limits of such assays; conditions: source organism: Bordetella pertussis
parameter: pIC50
Give bare numbers, as −log10 of the molar value.

I have this sequence here, "QPLPPRPVA" , and I need its recorded pIC50.
5.08

###

biological target: HLA-B*57:01; assay: IEDB peptide-MHC binding, purified MHC/competitive/radioactivity; bounds were set here for any values at or beyond the usual limits of such assays; conditions: source organism: Bordetella pertussis
parameter: IC50 (µM)
Answers are plain numbers, in µM.

Hello, I am looking for reported IC50 with HLA-B*57:01 for "RGSAATFTL" . Could you help?
10.7
